Below: a set of entries, each annotated with reported AC50.
- Target: Muscarinic acetylcholine receptor M2 (Homo sapiens); further: assay procedure not described here
- Sequence (P08172 whole entry): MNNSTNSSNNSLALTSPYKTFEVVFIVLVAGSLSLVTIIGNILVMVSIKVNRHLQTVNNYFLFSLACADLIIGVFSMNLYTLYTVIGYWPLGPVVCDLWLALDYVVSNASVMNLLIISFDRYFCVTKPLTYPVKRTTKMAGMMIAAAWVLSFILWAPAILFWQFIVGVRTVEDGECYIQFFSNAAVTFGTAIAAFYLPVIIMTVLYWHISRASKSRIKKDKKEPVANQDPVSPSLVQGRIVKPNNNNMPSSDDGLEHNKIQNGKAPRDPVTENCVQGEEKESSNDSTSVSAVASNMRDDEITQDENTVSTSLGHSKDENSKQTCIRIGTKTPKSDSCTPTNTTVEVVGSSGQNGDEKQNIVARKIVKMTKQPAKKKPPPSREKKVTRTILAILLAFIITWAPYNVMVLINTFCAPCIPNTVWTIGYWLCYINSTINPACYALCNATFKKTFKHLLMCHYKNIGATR
- Assay type: functional, cell-based

Examples with answers:
Item Cc1ccc(-c2ncc(Cl)cc2-c2ccc(S(C)(=O)=O)cc2)cn1 has what recorded AC50? > 10 µM

Cool, now C=C(c1ccccc1OCc1cccc(Cl)c1)n1ccnc1 > 10 µM

What about CCOc1ccccc1OCCN[C@H](C)Cc1ccc(OC)c(S(N)(=O)=O)c1 ? > 10 µM

Try this compound too: COc1cc(N)cn[n+]1-c1ccccc1 [AMEZINIUM METILSULFATE] > 30 µM

Further cases:
# AC50 lookup, item C[C@]12C=CC(=O)C=C1C(Cl)=C[C@@H]1[C@@H]2[C@@H](O)C[C@@]2(C)[C@H]1CC[C@]2(O)C(=O)CO > 30 µM
